protocol_summary: Half life in Sprague-Dawley rat at 3 mg/kg, po measured upto 24 hrs by LC-MS/MS analysis
Format: ADME, organism-based
setup_conditions: in vivo
assay_metric: half-life (h)

CC(C)n1cc(-c2ccc(F)cc2)c(=O)c2c(Nc3ccc(-c4cc(-c5cnn(C)c5)cnc4N)c(F)c3)nccc21    10.1
CC(C)n1cc(-c2ccc(F)cc2)c(=O)c2c(Nc3ccc(-c4cn(C)c5ncnc(N)c45)c(F)c3)nccc21    3.82

----------
protocol_summary: Metabolic stability in human liver microsomes assessed as half life preincubated with compound for 10 mins followed by NADPH addition and measured after 60 mins by LC-MS/MS analysis
Assay type: ADME, Microsome
setup_conditions: time 70 min
assay_metric: half-life (h)

CC(C)n1cc(-c2ccc(F)cc2)c(=O)c2c(Nc3ccc(-c4cc(-c5cnn(C)c5)cnc4N)c(F)c3)nccc21    2.57
CC(C)n1cc(-c2ccc(F)cc2)c(=O)c2c(Nc3ccc(-c4cn(C)c5ncnc(N)c45)c(F)c3)nccc21    0.765
